Where do the numbers come from? From patent US20240132492A1.

# Tested on: PC-9
# PROTOCOL_DESCRIPTION: CCK-8 tumor cell proliferation, PC-9
# Format: cell-based
# STUDY_CONDITIONS: PC-9 cells, 72 hours
READOUT_NAME: IC50

Incoming: Request the reported IC50 associated with C=CC(=O)Nc1cccc(-n2c(=O)cc(C)c3cnc(Nc4ccc(N5CCN(C(=O)CCCCCCCCCCCNC(=O)CC67CC8CC(CC(C8)C6)C7)CC5)cc4OC)nc32)c1
Outgoing: 6.79 µM

---

# Tested on: HCC827
# PROTOCOL_DESCRIPTION: CCK-8 tumor cell proliferation, HCC827
# Format: cell-based
# STUDY_CONDITIONS: Homo sapiens, HCC827 cells, 72 hours
READOUT_NAME: IC50 (µM)
// note: answer is a bare numeric in µM

Use the examples below as a reference point.
1. C=CC(=O)Nc1cccc(-n2c(=O)cc(C)c3cnc(Nc4ccc(N5CCN(CCCCCCCCCCCCNC(=O)CC67CC8CC(CC(C8)C6)C7)CC5)cc4OC)nc32)c1 | 0.126
2. C=CC(=O)Nc1cccc(-n2c(=O)cc(C)c3cnc(Nc4ccc(N5CCN(CCCCCCCCNC(=O)CC67CC8CC(CC(C8)C6)C7)CC5)cc4OC)nc32)c1 | 0.0954

Incoming: Request the reported IC50 associated with C=CC(=O)Nc1cccc(-n2c(=O)cc(C)c3cnc(Nc4ccc(N5CCN(CCCCCCCCCCNC(=O)CC67CC8CC(CC(C8)C6)C7)CC5)cc4OC)nc32)c1
Outgoing: 0.0555

Incoming: Request the reported IC50 associated with CCC(=O)Nc1cccc(-n2c(=O)cc(C)c3cnc(Nc4ccc(N5CCN(CCCCCCCCCCCCNC(=O)CC67CC8CC(CC(C8)C6)C7)CC5)cc4OC)nc32)c1
Outgoing: 0.157

Incoming: Request the reported IC50 associated with COc1cc(N2CCN(CCCCCCCCCCCCNC(=O)CC34CC5CC(CC(C5)C3)C4)CC2)ccc1Nc1ncc2c(C)cc(=O)n(-c3cccc(NC(C)=O)c3)c2n1
Outgoing: 0.134

---

# TARGET_DESC: AKT1 (Homo sapiens, UniProt P31749)
# Construct: AKT1, AKT2, and AKT3 proteins in H1975-OR cells; endogenous in cells; host or cells: H1975-OR (osimertinib-resistant H1975)
# Sequence (P31749 whole entry): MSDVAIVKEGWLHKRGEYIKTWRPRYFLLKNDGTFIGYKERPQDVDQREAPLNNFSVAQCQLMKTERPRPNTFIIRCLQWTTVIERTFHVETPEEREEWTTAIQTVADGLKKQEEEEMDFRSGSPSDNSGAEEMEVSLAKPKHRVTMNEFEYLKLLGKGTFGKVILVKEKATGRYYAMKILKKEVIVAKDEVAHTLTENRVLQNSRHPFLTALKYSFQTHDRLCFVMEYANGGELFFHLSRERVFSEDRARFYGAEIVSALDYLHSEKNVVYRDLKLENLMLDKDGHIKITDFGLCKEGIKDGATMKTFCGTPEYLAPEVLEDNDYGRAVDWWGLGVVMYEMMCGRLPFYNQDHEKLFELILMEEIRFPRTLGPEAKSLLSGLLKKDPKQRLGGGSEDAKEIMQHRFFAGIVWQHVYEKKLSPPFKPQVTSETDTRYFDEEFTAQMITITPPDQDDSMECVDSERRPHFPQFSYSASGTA
# PROTOCOL_DESCRIPTION: Western Blot, degradation of AKT1 protein in H1975-OR cells
# Format: cell-based
# STUDY_CONDITIONS: 1000 nM, 24 hours, maximum degradation rate
READOUT_NAME: Dmax at 1 µM
Give the figure together with its unit, number first.

1. C=CC(=O)Nc1cccc(-n2c(=O)cc(C)c3cnc(Nc4ccc(N5CCN(CCCCCCCCCCCCNC(=O)CC67CC8CC(CC(C8)C6)C7)CC5)cc4OC)nc32)c1 | 34.4%
2. COc1cc(N2CCN(CCCCCCCCNC(=O)C3CC3)CC2)ccc1Nc1ncc2c(C)cc(=O)n(-c3cccc(NC(=O)C4CC4)c3)c2n1 | 28.4%

Incoming: Under AKT1 (Homo sapiens, UniProt P31749): Dmax at 1 µM value of COc1cc(N2CCN(CCCCCCCCCCCCNC(=O)CC34CC5CC(CC(C5)C3)C4)CC2)ccc1Nc1ncc2c(C)cc(=O)n(C3CCCC3)c2n1 ?
Outgoing: 0%

Incoming: Under AKT1 (Homo sapiens, UniProt P31749): Dmax at 1 µM value of C=CC(=O)Nc1cccc(-n2c(=O)cc(C)c3cnc(Nc4ccc(N5CCN(CCCCCCCCCCCCCCNC(=O)CC67CC8CC(CC(C8)C6)C7)CC5)cc4OC)nc32)c1 ?
Outgoing: 0%

Incoming: Under AKT1 (Homo sapiens, UniProt P31749): Dmax at 1 µM value of COc1cc(OCCOCCCCCCCCCCCCOCCC23CC4CC(CC(C4)C2)C3)ccc1Nc1ncc2c(C)cc(=O)n(-c3cccc(NC(=O)C4CC4)c3)c2n1 ?
Outgoing: 0%

Incoming: Under AKT1 (Homo sapiens, UniProt P31749): Dmax at 1 µM value of COc1cc(N2CCN(CCCCCCCCCCCCNC(=O)CC34CC5CC(CC(C5)C3)C4)CC2)ccc1Nc1ncc2c(C)cc(=O)n(-c3cccc(NCC4CC4)c3)c2n1 ?
Outgoing: 0%

---

# TARGET_DESC: AKT1 (Homo sapiens, UniProt P31749)
# Construct: AKT1, AKT2, and AKT3 proteins in H1975-OR cells; endogenous in cells; host or cells: H1975-OR (osimertinib-resistant H1975)
# PROTOCOL_DESCRIPTION: Western Blot, degradation of AKT1 protein in H1975-OR cells
# Type: cell-based
# STUDY_CONDITIONS: 1000 nM, 24 hours, maximum degradation rate
READOUT_NAME: Dmax at 1 µM (%)
// note: answer is a bare numeric in %

1. COc1cc(N2CCN(CCCCCCCCNC(=O)C[C@]34CC5C[C@@](C)(C[C@@](C)(C5)C3)C4)CC2)ccc1Nc1ncc2c(C)cc(=O)n(-c3cccc(NC(=O)C4CC4)c3)c2n1 | 30.3

Incoming: Request the reported Dmax at 1 µM associated with COc1cc(OCCOCCCCCCCCCCCCNC(=O)CC23CC4CC(CC(C4)C2)C3)ccc1Nc1ncc2c(C)cc(=O)n(-c3cccc(NC(=O)C4CC4)c3)c2n1
Outgoing: 0

Incoming: Request the reported Dmax at 1 µM associated with COc1cc(N2CCN(CCCCCCCCNC(=O)C34CC5CC(CC(C5)C3)C4)CC2)ccc1Nc1ncc2c(C)cc(=O)n(-c3cccc(NC(=O)C4CC4)c3)c2n1
Outgoing: 42.2

Incoming: Request the reported Dmax at 1 µM associated with COc1cc(N2CCN(CCCCCCCCCCCCNC(=O)CC34CC5CC(CC(C5)C3)C4)CC2)ccc1Nc1ncc2c(C)cc(=O)n(-c3cccc(NCC4CNC4)c3)c2n1
Outgoing: 22.4

Incoming: Request the reported Dmax at 1 µM associated with COc1cc(N2CCN(CCCCCCCCCCCCNC(=O)CC34CC5CC(CC(C5)C3)C4)CC2)ccc1Nc1ncc2c(C)cc(=O)n(-c3cccc(N(C)C)c3)c2n1
Outgoing: 57.5

---

# System: HCC827
# PROTOCOL_DESCRIPTION: CCK-8 tumor cell proliferation, HCC827
# Assay type: cell-based
# STUDY_CONDITIONS: Homo sapiens, HCC827 cells, 72 hours
READOUT_NAME: IC50 (µM)
// note: answer is a bare numeric in µM

1) COc1cc(N2CCN(CCCCCCCCCCCCNC(=O)CC34CC5CC(CC(C5)C3)C4)CC2)ccc1Nc1ncc2c(C)cc(=O)n(-c3cccc(NC(=O)C4CCCCC4)c3)c2n1 | 10.7

With those in mind, consider the next compound.
Incoming: Request the reported IC50 associated with C=CC(=O)Nc1cccc(-n2c(=O)cc(C)c3cnc(Nc4ccc(N5CCN(CCOCCOCCNC(=O)CC67CC8CC(CC(C8)C6)C7)CC5)cc4OC)nc32)c1
Outgoing: 0.141

---

Each entry below lists one item and its recorded Dmax at 1 µM value.
# TARGET_DESC: AKT2 (Homo sapiens, UniProt P31751)
# Construct: AKT1, AKT2, and AKT3 proteins in H1975-OR cells; endogenous in cells; host or cells: H1975-OR (osimertinib-resistant H1975)
# Sequence (P31751 whole entry): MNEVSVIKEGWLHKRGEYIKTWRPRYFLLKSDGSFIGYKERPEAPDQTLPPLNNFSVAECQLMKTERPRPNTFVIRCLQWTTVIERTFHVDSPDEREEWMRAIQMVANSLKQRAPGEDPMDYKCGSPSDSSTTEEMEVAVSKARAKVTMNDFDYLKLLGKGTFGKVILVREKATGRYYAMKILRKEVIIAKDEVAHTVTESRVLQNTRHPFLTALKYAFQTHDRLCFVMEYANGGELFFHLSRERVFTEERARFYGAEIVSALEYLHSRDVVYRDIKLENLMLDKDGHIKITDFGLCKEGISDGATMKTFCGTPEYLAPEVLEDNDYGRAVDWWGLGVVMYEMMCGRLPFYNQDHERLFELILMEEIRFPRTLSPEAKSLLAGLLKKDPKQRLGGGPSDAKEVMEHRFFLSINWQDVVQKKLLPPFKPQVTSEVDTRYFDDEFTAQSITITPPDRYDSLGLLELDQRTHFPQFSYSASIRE
# PROTOCOL_DESCRIPTION: Western Blot, degradation of AKT2 protein in H1975-OR cells
# Format: cell-based
# STUDY_CONDITIONS: 1000 nM, 24 hours, maximum degradation rate
// note: answer is a bare numeric in %

1) COc1cc(N2CCN(CCCCCCCCCCCCNC(=O)CC34CC5CC(CC(C5)C3)C4)CC2)ccc1Nc1ncc2c(C)cc(=O)n(-c3ccccc3)c2n1 | 0
2) C=CC(=O)Nc1cccc(-n2c(=O)cc(C)c3cnc(Nc4ccc(N5CCN(CCCCCCNC(=O)CC67CC8CC(CC(C8)C6)C7)CC5)cc4OC)nc32)c1 | 0
3) CCC(=O)Nc1cccc(-n2c(=O)cc(C)c3cnc(Nc4ccc(N5CCN(CCCCCCCCCCCCNC(=O)CC67CC8CC(CC(C8)C6)C7)CC5)cc4OC)nc32)c1 | 0
4) COc1cc(N2CCN(CCCCCCCCCCCCNC(=O)CC34CC5CC(CC(C5)C3)C4)CC2)ccc1Nc1ncc2c(C)cc(=O)n(-c3cccc(NCC4CCC4)c3)c2n1 | 51
5) COc1cc(OCCOCCCCCCCCCCCCNC(=O)CC23CC4CC(CC(C4)C2)C3)ccc1Nc1ncc2c(C)cc(=O)n(-c3cccc(NC(=O)C4CC4)c3)c2n1 | 30.2

Incoming: Request the reported Dmax at 1 µM associated with COc1cc(N2CCN(CCCCCCCCCCCCNC(=O)CC34CC5CC(CC(C5)C3)C4)CC2)ccc1Nc1ncc2c(C)cc(=O)n(-c3cccc(NC(C)=O)c3)c2n1
Outgoing: 0
